B1: CPEB3 Ribozyme (parent)
chain: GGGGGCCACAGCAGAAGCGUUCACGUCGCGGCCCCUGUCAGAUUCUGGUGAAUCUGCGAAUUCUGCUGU

- Variants of: B1
- RUN DESCRIPTION: self-cleavage, relative activity (ratio to wild type); higher = more cleavage; co-transcriptional
# Lookup of reported self-cleavage keyed by entry
I only need the number, thanks.

SEQ	MEASURED RESULT
GGGGGCCACAGCAGAAGCGUUGACGUCGCGGCCCCUGUCAGAUUCUGGUGAAUCUGCGAAUUCGGCUGU [C22G U64G]	0.157

Ask: Note down self-cleavage recorded for GGGGGCCACAGCAGAAGCGUUCACGUCGCGGCUCCUGUCAGAUUCUGGUGAAUCUGCGAAUGCUGCUGU [C33U U62G]
Result: 0.845

Ask: Note down self-cleavage recorded for GGGGGCCACAGCAGAUGCGUUCACGUCGCGGCCCCUGUCAGAUUCUGGUGAAUGUGCGAAUUCUGCUGU [A16U C54G]
Result: 0.662

Ask: Note down self-cleavage recorded for GGGGGCCACAGCAGAAGCGUUCACGUCGCGGCCCCUGUCAGAUUCAGGGGAAUCUGCGAAUUCUGCUGU [U46A U49G]
Result: 0.922

Ask: Note down self-cleavage recorded for GGGGGCCACAGCAGAAGCGUUCACGUCGCUGCCCCUGUCAGAUUCUGGUGAAUCUGCGAAUUCUGCUGG [G30U U69G]
Result: 0.792
